- Test system: HOP-92 NSCLC
- assay.details: NCI tumour cell line growth inhibition, 48 h
Assign met to entries whose TGI meets or exceeds 8 µM; assign not met to the rest.

See these solved cases before continuing.
molecule	group
COc1cc(C(=O)Oc2c(C(C)=O)sc3c2c(=O)n(-c2ccccc2)c(=S)n3-c2ccccc2)cc(OC)c1OC	met
CCSc1ccc([C@@H]2[C@@H](O)C(=O)N2c2cc(OC)c(OC)c(OC)c2)cc1	met
CC(=O)NC1(NC(C)=O)C2CC(C1Cc1ccccc1)C(C)(C)C2C (stereo not given)	met
Cc1ccc(S(=O)(=O)c2nc(-c3ccccc3)oc2S(C)(=O)=O)cc1	not met
O=c1[nH]ncc2[nH]c3c4ccccc4ccc3c12	met

Hi, just wondering whether Clc1ccccc1CN1COc2c(ccc3cccnc23)C1 shows TGI of 8 µM or higher.
not met

Hi, just wondering whether O=c1[nH]nc(-c2ccccc2)n1/N=C/c1cccc([N+](=O)[O-])c1 shows TGI of 8 µM or higher.
met

Hi, just wondering whether COc1ccc(/C=C2\CCC(CCN(C)C)(C3=CCCC3)C2=O)cc1 (stereo not given) shows TGI of 8 µM or higher.
met

Hi, just wondering whether Nc1nccc(NCC2(CO)CC(OCc3ccccc3)C2)n1 (stereo not given) shows TGI of 8 µM or higher.
met

Hi, just wondering whether Nc1nc(N)c2cc(Sc3ccc4ccccc4c3)ccc2n1 shows TGI of 8 µM or higher.
not met
